Molecular target: T1, soluble KDR extracellular domain (ECD) (Calbiochem) (human, UniProt P35968 20-764)
T1 construct: extracellular domain; Bought protein; also called KDR-ECD; VEGF Receptor 2 D1-7, Cat. #676490
T1 sequence (P35968 20-764): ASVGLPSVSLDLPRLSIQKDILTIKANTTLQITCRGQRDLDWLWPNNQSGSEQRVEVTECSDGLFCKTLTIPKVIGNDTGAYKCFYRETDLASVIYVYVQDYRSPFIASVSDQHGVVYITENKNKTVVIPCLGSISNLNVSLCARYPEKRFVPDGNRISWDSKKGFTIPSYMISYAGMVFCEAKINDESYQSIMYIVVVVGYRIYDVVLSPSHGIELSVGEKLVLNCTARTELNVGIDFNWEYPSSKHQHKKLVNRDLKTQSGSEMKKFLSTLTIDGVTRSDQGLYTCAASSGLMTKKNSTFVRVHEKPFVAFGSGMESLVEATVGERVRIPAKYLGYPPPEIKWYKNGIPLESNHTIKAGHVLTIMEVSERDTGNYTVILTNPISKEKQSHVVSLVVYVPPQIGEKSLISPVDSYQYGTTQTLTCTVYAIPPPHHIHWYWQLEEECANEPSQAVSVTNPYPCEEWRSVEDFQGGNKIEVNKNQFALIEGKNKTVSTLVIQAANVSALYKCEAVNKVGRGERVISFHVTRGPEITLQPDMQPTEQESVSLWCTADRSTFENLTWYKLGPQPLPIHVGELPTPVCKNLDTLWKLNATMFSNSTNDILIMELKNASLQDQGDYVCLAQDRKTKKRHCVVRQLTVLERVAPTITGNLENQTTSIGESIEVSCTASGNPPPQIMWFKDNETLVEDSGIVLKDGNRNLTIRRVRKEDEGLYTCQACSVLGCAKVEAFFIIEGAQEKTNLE
Assay: High Antigen ELISA, KDR coat 500 ng/mL, supernatant 1:225
Procedure: ELISA plates were coated with a greater amount of KDR (at 500 ng/mL) in comparison with the Limited Antigen Quantitation assay described below. Sample containing antibody (Ab) was titrated on the KDR-coated ELISA plates and was incubated overnight at 4° C. to allow Ab binding to approach equilibrium. […] The high KDR concentration and the overnight incubation limited the effect of Ab affinity, allowing quantitation of the relative amount of KDR-specific Ab present in each sample.
quantity name: ELISA reading

[[record]]
binder = "32F4 (antibody, V domains shown, Fully human mAb from XenoMouse hybridoma, tested as hybridoma supernatant) VH: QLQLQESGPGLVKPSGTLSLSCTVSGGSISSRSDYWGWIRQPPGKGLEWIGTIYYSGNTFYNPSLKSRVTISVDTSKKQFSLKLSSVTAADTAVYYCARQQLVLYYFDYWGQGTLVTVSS VL: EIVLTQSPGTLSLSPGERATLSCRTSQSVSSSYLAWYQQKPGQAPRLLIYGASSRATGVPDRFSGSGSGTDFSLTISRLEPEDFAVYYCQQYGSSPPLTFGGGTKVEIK"
quantity_name = "ELISA reading"
test_value = 6

[[record]]
binder = "30A1 (antibody, V domains shown, Fully human mAb from XenoMouse hybridoma, tested as hybridoma supernatant) VH: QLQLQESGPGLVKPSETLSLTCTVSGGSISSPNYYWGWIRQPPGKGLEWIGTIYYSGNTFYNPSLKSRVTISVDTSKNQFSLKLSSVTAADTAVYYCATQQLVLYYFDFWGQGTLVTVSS VL: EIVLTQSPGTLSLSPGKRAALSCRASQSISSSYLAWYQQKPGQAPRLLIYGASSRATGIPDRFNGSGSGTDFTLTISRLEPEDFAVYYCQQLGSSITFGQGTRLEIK"
quantity_name = "ELISA reading"
test_value = 6

[[record]]
binder = "21H9 (antibody, V domains shown, Fully human mAb from XenoMouse hybridoma, tested as hybridoma supernatant) VH: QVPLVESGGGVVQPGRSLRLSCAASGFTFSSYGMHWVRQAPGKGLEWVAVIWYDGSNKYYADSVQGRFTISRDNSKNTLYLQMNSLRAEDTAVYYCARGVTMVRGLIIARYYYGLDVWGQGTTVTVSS VL: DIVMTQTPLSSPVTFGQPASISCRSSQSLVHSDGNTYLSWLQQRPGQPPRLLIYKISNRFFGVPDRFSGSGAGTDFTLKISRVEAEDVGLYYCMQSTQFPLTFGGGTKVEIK"
quantity_name = "ELISA reading"
test_value = 3.41

[[record]]
binder = "33C3 (antibody, V domains shown, Fully human mAb from XenoMouse hybridoma, tested as hybridoma supernatant) VH: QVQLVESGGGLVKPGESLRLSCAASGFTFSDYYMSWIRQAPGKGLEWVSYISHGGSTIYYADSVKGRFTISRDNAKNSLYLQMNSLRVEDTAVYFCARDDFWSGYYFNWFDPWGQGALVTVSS VL: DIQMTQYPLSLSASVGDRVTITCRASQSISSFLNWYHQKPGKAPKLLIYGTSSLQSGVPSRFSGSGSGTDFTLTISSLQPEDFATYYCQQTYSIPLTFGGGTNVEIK"
quantity_name = "ELISA reading"
test_value = 4.31

